measurement_parameters: buffer; pH 7.4; 200.0 µM
measure: solubility kinetic

Worked set:
CC(=O)Nc1ccc2nc(NC(=O)c3ccc([N+](=O)[O-])o3)sc2c1 = 4 µg/mL
CCN(CC(=O)NC(=O)NC1CCCC1)Cc1ccccc1 = > 45.5 µg/mL
Cn1cccc1C(=O)OCc1nc2ccccc2c(=O)[nH]1 = 29.6 µg/mL
CC(=O)Nc1ccc(NC(=O)c2cccc(S(=O)(=O)N3CCCCCC3)c2)cc1 = 5.3 µg/mL
CN(C)c1cc(-c2ccccc2)nc(-c2ccccc2)n1 = < 0.2 µg/mL
COc1ccc(NC(=S)N2CCc3ccccc3C2)cc1OC = 1.9 µg/mL

(Q) Endpoint output: solubility kinetic of Cc1c(Cl)cccc1NC(=S)NCC(O)c1ccccc1 (configuration not stated) . Value?
(A) 46.7 µg/mL

(Q) Endpoint output: solubility kinetic of O=C(Nc1ccc(NC(=O)c2ccco2)cc1)c1ccco1 . Value?
(A) 2.5 µg/mL

(Q) Endpoint output: solubility kinetic of CCCOc1ccc(N2C(=O)C/C(=C\c3ccccc3)C2=O)cc1 . Value?
(A) < 0.7 µg/mL

(Q) Endpoint output: solubility kinetic of CCCC12CN3CC(CCC)(CN(C1)C3c1ccco1)C2=O (configuration not stated) . Value?
(A) > 45.4 µg/mL

(Q) Endpoint output: solubility kinetic of Cc1ccc(NC(=O)N2CCCCCC2)cc1C . Value?
(A) > 37 µg/mL

(Q) Endpoint output: solubility kinetic of CCOC(=O)c1[nH]cnc1C(=O)Nc1ccc(F)cc1 . Value?
(A) 6.7 µg/mL

----------
Readings of solubility kinetic for the listed molecules
measurement_parameters: buffer; pH 7.4; 200.0 µM
# number only, unit µg/mL dropped from output

Cc1ccc(OCC(=O)NCCc2c[nH]c3ccccc23)cc1 = 4.9

(Q) Endpoint output: solubility kinetic of O=C(Nc1cccc(C(=O)Nc2ccccc2F)c1)c1ccccc1 . Value?
(A) 1

(Q) Endpoint output: solubility kinetic of OCCC1CN(CC2CCCCC2)CCN1C1CCCC1 (stereo unspecified) . Value?
(A) 40.8

(Q) Endpoint output: solubility kinetic of CC(=O)Nc1ccc(/C=C/c2nc3ccccc3[nH]c2=O)cc1 . Value?
(A) 27

(Q) Endpoint output: solubility kinetic of CN1CCN(CCCN2c3ccccc3Sc3ccc(Cl)cc32)CC1.O=S(=O)(O)CCS(=O)(=O)O . Value?
(A) 73.3

----------
measurement_parameters: buffer; pH 7.4; 200.0 µM
Each record's class is read off its solubility kinetic using these ranges: low-valued (below 8 µg/mL), mid-valued (8 µg/mL to below 30 µg/mL), high-valued (30 µg/mL or more)

# example entries with known answers
CCCNC(=O)CN(C)CC(=O)Nc1ccccc1C#N = high-valued
Nc1ccccc1SCC(=O)Nc1cccc2ccccc12 = high-valued
Cc1ccc(S(=O)(=O)CCC(=O)N2CCN(c3ccccc3O)CC2)cc1 = high-valued
O=C(NC(=S)Nc1ccc(Br)c(Cl)c1)C1CC1 = low-valued
COc1ccc2c(c1)-c1nc(/N=C/c3ccccc3O)sc1CC2 = high-valued
c1ccc2[nH]c(-c3ccc4c(c3)OCO4)nc2c1 = high-valued
N#CNC(=Nc1ccc(Cl)cc1)Oc1ccccc1 = low-valued
COc1ccc(/C=C2/N=C(SC)NC2=O)cc1OC = mid-valued

(Q) For this molecule, which bin applies? CC(=O)Nc1ccc(C23CC4CC(CC(C4)C2)C3)cc1
(A) low-valued

(Q) For this molecule, which bin applies? CC1=C(C(=O)NC(C)c2ccccc2)C2(CCC(C)CC2)OC1=O (stereo not given)
(A) mid-valued

(Q) For this molecule, which bin applies? CCOC(=O)Cc1cc(C)[nH]c1C(=O)OCC
(A) high-valued

(Q) For this molecule, which bin applies? COC(=O)c1ccccc1NC(=O)c1ccc2c(c1)OCCCO2
(A) low-valued

(Q) For this molecule, which bin applies? COc1ccc(OC)c(NC(=O)C2CC2c2ccccc2)c1 (stereo not given)
(A) mid-valued

(Q) For this molecule, which bin applies? COc1ccc(C)cc1NC(=O)CN1C(=O)COc2ccc(C)cc21
(A) low-valued

(Q) For this molecule, which bin applies? CCOc1ncccc1C(=O)NCc1ccccc1Cl
(A) high-valued

(Q) For this molecule, which bin applies? Cc1cc(C)c(NC(=O)COC(=O)c2ccncc2)c(C)c1
(A) high-valued

(Q) For this molecule, which bin applies? Cc1cc(C(=O)OCC(=O)Nc2ccccc2Br)c(C)o1
(A) low-valued

(Q) For this molecule, which bin applies? Cc1csc(SCC(=O)NC(=O)NCCC(C)C)n1
(A) mid-valued

----------
measurement_parameters: buffer; pH 7.4; 200.0 µM
measure: solubility kinetic (µg/mL)
# number only, unit µg/mL dropped from output

Worked set:
CC(=O)c1cc(C#N)c(SCc2ccccn2)nc1C = 10.2
N#Cc1ccc(Cn2c(-c3ccc(F)cc3)noc2=O)cc1 = 37.6
Cc1cc(C(=O)Nc2cccc3ccccc23)c(C)o1 = 4

(Q) Endpoint output: solubility kinetic of CCCc1c(C)nc2c(OC)cccc2c1SCC(=O)O . Value?
(A) 42.5

----------
measurement_parameters: buffer; pH 7.4; 200.0 µM
// 0.0 strictly below 30 µg/mL in solubility kinetic; 1.0 otherwise

# example entries with known answers
Cc1c(Cl)cccc1NC(=S)NCc1ccco1 = 1.0
Cc1cccc(NC(=O)c2cccc(C(=O)Nc3cccc(C)n3)c2)n1 = 0.0
CN(C)C(=O)Oc1ccc2c(c1)O/C(=C\c1cccc(Cl)c1)C2=O = 0.0
CCN(C(=O)C(C)Sc1nnc(-c2ccncc2)n1C)C1CCCCC1 (configuration not stated) = 1.0
Cc1cccc(N2CCN(C(=O)c3ccc4nccnc4c3)CC2C)c1 (configuration not stated) = 1.0

(Q) Hi team, for Cc1cnc(NC(=O)Cc2ccc(S(=O)(=O)N3CCOCC3)s2)s1 , is the recorded solubility kinetic at or above 30 µg/mL?
(A) 0.0

----------
Readings of log10 of solubility kinetic for the listed compounds
measurement_parameters: buffer; pH 7.4; 200.0 µM
Friendly reminder: values = log10 of solubility kinetic, unit µg/mL.

Worked set:
COc1ccccc1CC(=O)Nc1cccc(C(=O)Nc2nccs2)c1 = -0.15
N#Cc1ccsc1NC(=O)CN1C(=O)NC2(CCCCC2)C1=O = 1.67
Cc1ccc(S(=O)(=O)N2CCC(C(=O)NCC3CC3)CC2)cc1 = 1.50
COC(=O)CSc1nc2sc3c(c2c(=O)[nH]1)CCC3 = 1.20
N#C/C(=C\c1ccc(Cl)cc1)C(=O)NC1CC1 = 0.70
O=C(OCCC1Oc2cccnc2NC1=O)c1ccc(Cl)cc1 (configuration not stated) = 0.60

(Q) Endpoint output: log10 of solubility kinetic of Cc1cc(C)nc(NC=C2C(=O)OC(C)(C)OC2=O)n1 . Value?
(A) 1.61

(Q) Endpoint output: log10 of solubility kinetic of O=C(OCc1c(F)cccc1Cl)c1cccnc1Cl . Value?
(A) 0.71

----------
measurement_parameters: buffer; pH 7.4; 200.0 µM
// not fulfilled strictly below 4 µg/mL in solubility kinetic; fulfilled otherwise

# example entries with known answers
O=C(C[n+]1ccccn1)c1ccccc1.[Br-] = fulfilled
COc1ccc(NC(=O)c2ccc3ncsc3c2)cc1 = not fulfilled
O=C(COC(=O)c1ccc([N+](=O)[O-])cc1)NC1CCCC1 = fulfilled
Cc1ccc(NCc2ccc(O)c3ncccc23)cc1C = not fulfilled
COc1ccc(/C=C/c2ccc3cccc(O)c3n2)cc1Br = not fulfilled

(Q) Hi team, for O=C(COc1ccc(Br)cc1)N1CCc2ccccc21 , is the recorded solubility kinetic at or above 4 µg/mL?
(A) not fulfilled

(Q) Hi team, for NC(=O)C1CCN(c2ccc(S(=O)(=O)N3CCCCC3)cc2[N+](=O)[O-])CC1 , is the recorded solubility kinetic at or above 4 µg/mL?
(A) fulfilled

(Q) Hi team, for O=C(NC(=S)Nc1cccc([N+](=O)[O-])c1)c1ccccc1 , is the recorded solubility kinetic at or above 4 µg/mL?
(A) not fulfilled

(Q) Hi team, for COc1ccc(NC(=O)CN(C)Cc2cccs2)cc1Cl , is the recorded solubility kinetic at or above 4 µg/mL?
(A) fulfilled

(Q) Hi team, for CCN(CC)Cc1c(O)ccc2occ(C(=O)c3ccccc3)c12 , is the recorded solubility kinetic at or above 4 µg/mL?
(A) fulfilled

(Q) Hi team, for O=C(NCc1ccccc1)c1nc2ccccc2s1 , is the recorded solubility kinetic at or above 4 µg/mL?
(A) fulfilled

----------
Readings of solubility kinetic for the listed compounds
measurement_parameters: buffer; pH 7.4; 200.0 µM

Worked set:
N#CCn1cnc2c(oc3ccccc32)c1=O = > 33.8 µg/mL
COc1cc(OC)cc(C(=O)Nc2cccc3cccnc23)c1 = < 0.3 µg/mL
Oc1ccccc1N1CCN(C(=S)NCc2ccccc2)CC1 = 22.4 µg/mL
Cc1ccc(NC(=O)CCCN2C(=S)NC(C)(C)CC2C)cc1 (stereo unspecified) = 45.5 µg/mL
Cc1noc(C)c1C(=O)NCc1ccccc1Br = 44.6 µg/mL
Nc1c(C(=O)N2CCOCC2)sc2nc3c(cc12)CCCC3 = > 47.6 µg/mL
COC(=O)c1sc(C(C)(C)C)cc1CS(=O)(=O)c1ccccn1 = 45.2 µg/mL
CC(NC(=O)COC(=O)c1ccc2c(c1)OCCO2)c1ccccc1 (stereo unspecified) = 11.4 µg/mL

(Q) Endpoint output: solubility kinetic of CC(C)CCNC(=O)c1cc2c(=O)[nH]c3ccccc3c2s1 . Value?
(A) < 0.3 µg/mL

(Q) Endpoint output: solubility kinetic of CCOc1ncccc1C(=O)OCC(=O)c1ccc(OC)c(OC)c1 . Value?
(A) > 51.8 µg/mL

(Q) Endpoint output: solubility kinetic of CCN(C(=O)COC(=O)c1ccco1)c1cccc2ccccc12 . Value?
(A) 47.4 µg/mL

(Q) Endpoint output: solubility kinetic of COc1cccc(CN2CCNCC2)c1OC . Value?
(A) 20.3 µg/mL

(Q) Endpoint output: solubility kinetic of O=C(C=C1NCCN1)c1ccccc1 . Value?
(A) > 28.2 µg/mL

(Q) Endpoint output: solubility kinetic of CCN1CCN(C(=S)NC(=O)c2cc(OC)c(OC)c(OC)c2)CC1 . Value?
(A) > 55.1 µg/mL
